Tested on: NCI-H226
ASSAY OVERVIEW: NCI tumour cell line growth inhibition, 48 h
The source made the active and inactive calls. Rule as the data show it: active = GI50 up to about 1.1 µM and inactive = higher.
READOUT: GI50

Example entries and their recorded answers appear below.
- MOLECULE: "NC(=S)N/N=c1\\cc(C(=O)Nc2ccc([N+](=O)[O-])cc2[N+](=O)[O-])oc2ccccc12"
  READOUT: "GI50"
  REPORTED MEASUREMENT: "88.9 µM (inactive)"
- MOLECULE: "COc1cccc(-c2nc3c(C(=O)NCCN(C)C)cccc3[nH]2)c1"
  READOUT: "GI50"
  REPORTED MEASUREMENT: "14 µM (inactive)"
- MOLECULE: "CC(C)Oc1c(O)c2c3c(oc(=O)n3C=CC2c2ccccc2F)c1OC(C)C (configuration not stated)"
  READOUT: "GI50"
  REPORTED MEASUREMENT: "32.6 µM (inactive)"
- MOLECULE: "COc1ccc(N2C(=O)c3cc(C)cnc3S2(=O)=O)cc1"
  READOUT: "GI50"
  REPORTED MEASUREMENT: "> 100 µM (inactive)"
- MOLECULE: "COC(=O)C(C/C=C(\\C)c1ccccc1)C(C)=O (configuration not stated)"
  READOUT: "GI50"
  REPORTED MEASUREMENT: "> 72.6 µM (inactive)"
- MOLECULE: "CSC1=N/C(=C\\c2ccc(C)cc2)C(=O)N1CN1CCCCC1"
  READOUT: "GI50"
  REPORTED MEASUREMENT: "> 100 µM (inactive)"
- MOLECULE: "CN1CCCOC(c2ccc([N+](=O)[O-])cc2)O1 (configuration not stated)"
  READOUT: "GI50"
  REPORTED MEASUREMENT: "> 100 µM (inactive)"
- MOLECULE: "CSC(=N/C=C/c1ccccc1)SC"
  READOUT: "GI50"
  REPORTED MEASUREMENT: "> 100 µM (inactive)"
- MOLECULE: "N=c1nc2n(cc1F)[C@@H]1O[C@H](CO)[C@@H](O)[C@@H]1O2"
  READOUT: "GI50"
  REPORTED MEASUREMENT: "17.3 µM (inactive)"
- MOLECULE: "Cc1nc(-c2nc(C)c(C(=O)/C=C/c3ccc([N+](=O)[O-])cc3)s2)sc1C(=O)/C=C/c1ccc([N+](=O)[O-])cc1"
  READOUT: "GI50"
  REPORTED MEASUREMENT: "> 100 µM (inactive)"

Record GI50 per entry; entries follow.
1. CC(C)(C)c1cc(C(OCCl)(C(F)(F)F)C(F)(F)F)c2c(c1)C(C(F)(F)F)(C(F)(F)F)OC21c2ccccc2C(=O)c2ccccc21
2. CCOC(=O)C(O)(NC(C)=O)C(F)(F)F (configuration not stated)
3. CC1(C)OC2OC(C(=O)c3ccccc3)C3OC(C)(C)OC3C2O1 (configuration not stated)
4. Cc1cc(C)c2c(=O)n(CN3CC4Nc5ccccc5C4C3)sc2n1 (configuration not stated)
5. COC(=O)C1CC2CC1C1C2SC(F)(F)C1(F)F (configuration not stated)

1. > 100 µM (inactive)
2. > 100 µM (inactive)
3. > 100 µM (inactive)
4. 20.8 µM (inactive)
5. > 100 µM (inactive)

Record GI50 per entry; entries follow.
1. COC(=O)/C=C\C(C#N)(C#N)/N=C/c1ccc(Br)s1
2. Cc1ccnc(NC(=S)Nc2ccccc2Cl)c1
3. COc1ccccc1NC(=O)C1=C(C)NC(C)=C(C(=O)Nc2ccccc2OC)C1c1cccc2ccccc12

3.18 µM (inactive)
63.5 µM (inactive)
50.7 µM (inactive)

Record GI50 per entry; entries follow.
1. O=C(c1ccco1)c1ccccc1C(=O)c1ccco1
2. COC(=O)c1cccc2c1Oc1ccccc1S2
3. O=C(/C=C/c1ccccc1Cl)c1ccc(Cl)cc1Cl

["> 100 µM (inactive)", "37.4 µM (inactive)", "15.7 µM (inactive)"]

The reported value for "COC(=O)CCCN(C)c1nc(N)n[nH]1" in terms of GI50 is > 100 µM (inactive)
